Reference source: paper PMC5700166

Listing of entries alongside the reported binding signal.
# systemUnderTest: GST-Dm-Relish (Drosophila melanogaster, UniProt Q94527 99-473)
# Sequence: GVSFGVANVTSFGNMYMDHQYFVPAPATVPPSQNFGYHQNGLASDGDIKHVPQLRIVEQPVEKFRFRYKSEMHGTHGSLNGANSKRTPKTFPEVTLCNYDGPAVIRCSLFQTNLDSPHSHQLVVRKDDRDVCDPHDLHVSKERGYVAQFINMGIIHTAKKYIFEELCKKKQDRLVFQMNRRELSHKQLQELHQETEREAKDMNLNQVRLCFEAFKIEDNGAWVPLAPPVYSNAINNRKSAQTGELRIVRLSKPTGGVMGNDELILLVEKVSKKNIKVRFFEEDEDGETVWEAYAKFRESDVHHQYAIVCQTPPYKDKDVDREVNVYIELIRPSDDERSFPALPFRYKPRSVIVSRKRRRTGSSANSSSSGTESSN
# testMethodNotes: protein-binding microarray (PBM); PBM: ~300 nM protein, 6 mM HEPES pH 7.8, 80 mM KCl, 0.5 mM EDTA, 0.5 mM EGTA, 6% glycerol, 35 ng/ul poly-dIdC, 1% milk, 1 h, room temperature; high values mean tight binding
# particulars: dsDNA, one strand shown
assayMetric: binding signal (z-score)

> print(dat)
                            sequencecontent                           systemundertest  assayvalue
1  CCGATTAACATCACAAAAATCCCTGATGTTAATCGGGTCTTGATTCGCTTGACGCTGCTG  GST-Dm-Relish (Drosophila melanogaster, UniProt Q94527 99-473)        8.17
2  CCGATTAACATCACCCTTTTCCCTGATGTTAATCGGGTCTTGATTCGCTTGACGCTGCTG  GST-Dm-Relish (Drosophila melanogaster, UniProt Q94527 99-473)        1.52
3  CCGATTAACATCAGGGGAACCTATGATGTTAATCGGGTCTTGATTCGCTTGACGCTGCTG  GST-Dm-Relish (Drosophila melanogaster, UniProt Q94527 99-473)        4.09
4  CCGATTAACATCACGGGATTTCCTGATGTTAATCGGGTCTTGATTCGCTTGACGCTGCTG  GST-Dm-Relish (Drosophila melanogaster, UniProt Q94527 99-473)        7.57
5  CCGATTAACATCACGAAATTCCCTGATGTTAATCGGGTCTTGATTCGCTTGACGCTGCTG  GST-Dm-Relish (Drosophila melanogaster, UniProt Q94527 99-473)        4.59

###

# systemUnderTest: GST-Hu-p50 (Homo sapiens, UniProt P19838 7-356)
# Sequence (P19838 7-356): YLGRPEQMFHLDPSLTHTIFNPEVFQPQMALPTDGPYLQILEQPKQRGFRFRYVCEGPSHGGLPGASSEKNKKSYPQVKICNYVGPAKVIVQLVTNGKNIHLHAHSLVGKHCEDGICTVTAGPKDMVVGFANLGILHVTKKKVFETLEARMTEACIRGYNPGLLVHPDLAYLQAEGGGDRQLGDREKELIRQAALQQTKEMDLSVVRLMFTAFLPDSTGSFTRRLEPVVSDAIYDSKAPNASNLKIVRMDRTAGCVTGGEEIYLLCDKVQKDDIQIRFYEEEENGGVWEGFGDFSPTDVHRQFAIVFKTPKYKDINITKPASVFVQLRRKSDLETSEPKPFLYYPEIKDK
# testMethodNotes: protein-binding microarray (PBM); PBM: ~300 nM protein, 6 mM HEPES pH 7.8, 80 mM KCl, 0.5 mM EDTA, 0.5 mM EGTA, 6% glycerol, 35 ng/ul poly-dIdC, 1% milk, 1 h, room temperature; high values mean tight binding
# particulars: dsDNA, one strand shown
Listing of entries alongside the reported binding signal.
assayMetric: binding signal (z-score)

> print(dat)
                             sequencecontent                           systemundertest  assayvalue
 1  CCGATTAACATCAAGGGGGGTGCTGATGTTAATCGGGTCTTGATTCGCTTGACGCTGCTG  GST-Hu-p50 (Homo sapiens, UniProt P19838 7-356)        4.67
 2  CCGATTAACATCAGGGAATTTAATGATGTTAATCGGGTCTTGATTCGCTTGACGCTGCTG  GST-Hu-p50 (Homo sapiens, UniProt P19838 7-356)        4.45
 3  CCGATTAACATCAGGGATTTTACTGATGTTAATCGGGTCTTGATTCGCTTGACGCTGCTG  GST-Hu-p50 (Homo sapiens, UniProt P19838 7-356)        3.96
 4  CCGATTAACATCAAAAAAGTACCTGATGTTAATCGGGTCTTGATTCGCTTGACGCTGCTG  GST-Hu-p50 (Homo sapiens, UniProt P19838 7-356)         5.8
 5  CCGATTAACATCAGGGAAACACCTGATGTTAATCGGGTCTTGATTCGCTTGACGCTGCTG  GST-Hu-p50 (Homo sapiens, UniProt P19838 7-356)        5.15
 6  CCGATTAACATCAGGGGATCCCCTGATGTTAATCGGGTCTTGATTCGCTTGACGCTGCTG  GST-Hu-p50 (Homo sapiens, UniProt P19838 7-356)        7.87
 7  CCGATTAACATCAAGGGACCCCCTGATGTTAATCGGGTCTTGATTCGCTTGACGCTGCTG  GST-Hu-p50 (Homo sapiens, UniProt P19838 7-356)        3.57
 8  CCGATTAACATCAAGTGGGAAAATGATGTTAATCGGGTCTTGATTCGCTTGACGCTGCTG  GST-Hu-p50 (Homo sapiens, UniProt P19838 7-356)        2.66
 9  CCGATTAACATCAGACATTCCCCTGATGTTAATCGGGTCTTGATTCGCTTGACGCTGCTG  GST-Hu-p50 (Homo sapiens, UniProt P19838 7-356)        5.51
10  CCGATTAACATCAAAATTCCCCATGATGTTAATCGGGTCTTGATTCGCTTGACGCTGCTG  GST-Hu-p50 (Homo sapiens, UniProt P19838 7-356)        6.99
11  CCGATTAACATCAATGTTCCCCCTGATGTTAATCGGGTCTTGATTCGCTTGACGCTGCTG  GST-Hu-p50 (Homo sapiens, UniProt P19838 7-356)        5.74
12  CCGATTAACATCAGGGGAACAAATGATGTTAATCGGGTCTTGATTCGCTTGACGCTGCTG  GST-Hu-p50 (Homo sapiens, UniProt P19838 7-356)        3.24
13  CCGATTAACATCAGGAAGTCCCCTGATGTTAATCGGGTCTTGATTCGCTTGACGCTGCTG  GST-Hu-p50 (Homo sapiens, UniProt P19838 7-356)        6.94
14  CCGATTAACATCAAGAATTTCCCTGATGTTAATCGGGTCTTGATTCGCTTGACGCTGCTG  GST-Hu-p50 (Homo sapiens, UniProt P19838 7-356)        5.23
15  CCGATTAACATCAAATAAACCCCTGATGTTAATCGGGTCTTGATTCGCTTGACGCTGCTG  GST-Hu-p50 (Homo sapiens, UniProt P19838 7-356)        4.96
16  CCGATTAACATCAGGGGAAGACCTGATGTTAATCGGGTCTTGATTCGCTTGACGCTGCTG  GST-Hu-p50 (Homo sapiens, UniProt P19838 7-356)        4.98
17  CCGATTAACATCAAAGAAGTCCCTGATGTTAATCGGGTCTTGATTCGCTTGACGCTGCTG  GST-Hu-p50 (Homo sapiens, UniProt P19838 7-356)        5.29
18  CCGATTAACATCAAAATCCCGGGTGATGTTAATCGGGTCTTGATTCGCTTGACGCTGCTG  GST-Hu-p50 (Homo sapiens, UniProt P19838 7-356)         3.3

###

# systemUnderTest: GST-Dm-Relish (Drosophila melanogaster, UniProt Q94527 99-473)
# Sequence: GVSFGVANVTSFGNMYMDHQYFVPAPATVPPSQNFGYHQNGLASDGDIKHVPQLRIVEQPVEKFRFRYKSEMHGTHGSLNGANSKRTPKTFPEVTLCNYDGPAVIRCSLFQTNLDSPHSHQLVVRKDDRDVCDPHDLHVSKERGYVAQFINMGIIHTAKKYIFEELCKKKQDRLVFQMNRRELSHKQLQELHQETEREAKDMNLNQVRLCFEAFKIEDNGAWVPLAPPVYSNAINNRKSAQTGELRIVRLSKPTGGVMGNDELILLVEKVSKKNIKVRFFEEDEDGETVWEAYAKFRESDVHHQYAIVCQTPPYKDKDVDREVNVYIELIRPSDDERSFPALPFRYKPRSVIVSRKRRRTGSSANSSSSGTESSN
# testMethodNotes: protein-binding microarray (PBM); PBM: ~300 nM protein, 6 mM HEPES pH 7.8, 80 mM KCl, 0.5 mM EDTA, 0.5 mM EGTA, 6% glycerol, 35 ng/ul poly-dIdC, 1% milk, 1 h, room temperature; Ap Aiptasia and Nv Nematostella (sea anemones) / Co Capsaspora / Aq Amphimedon (sponge) / Dm Drosophila / Hu human; RHD is the Rel homology domain; high values mean tight binding
# particulars: dsDNA, one strand shown
Rule for this label: t means binding signal is less than 4 z-score; f means binding signal is at least 4 z-score.

> print(dat)
                             sequencecontent  label
 1  CCGATTAACATCAGGGGTATAACTGATGTTAATCGGGTCTTGATTCGCTTGACGCTGCTG      t
 2  CCGATTAACATCAGATTATCCCCTGATGTTAATCGGGTCTTGATTCGCTTGACGCTGCTG      t
 3  CCGATTAACATCAAATAAGCCCCTGATGTTAATCGGGTCTTGATTCGCTTGACGCTGCTG      f
 4  CCGATTAACATCAATGGATTTCCTGATGTTAATCGGGTCTTGATTCGCTTGACGCTGCTG      t
 5  CCGATTAACATCAGGGGCTTTTATGATGTTAATCGGGTCTTGATTCGCTTGACGCTGCTG      f
 6  CCGATTAACATCACCCGTTTCCCTGATGTTAATCGGGTCTTGATTCGCTTGACGCTGCTG      t
 7  CCGATTAACATCAAAATTCCCTATGATGTTAATCGGGTCTTGATTCGCTTGACGCTGCTG      f
 8  CCGATTAACATCAGGGGAAAGACTGATGTTAATCGGGTCTTGATTCGCTTGACGCTGCTG      f
 9  CCGATTAACATCATAAACCCCCATGATGTTAATCGGGTCTTGATTCGCTTGACGCTGCTG      f
10  CCGATTAACATCACCAAAATTCCTGATGTTAATCGGGTCTTGATTCGCTTGACGCTGCTG      t
11  CCGATTAACATCAGAAATACCCCTGATGTTAATCGGGTCTTGATTCGCTTGACGCTGCTG      f
12  CCGATTAACATCAAATTTCCCCCTGATGTTAATCGGGTCTTGATTCGCTTGACGCTGCTG      f
13  CCGATTAACATCAAAGAAACCCCTGATGTTAATCGGGTCTTGATTCGCTTGACGCTGCTG      f
14  CCGATTAACATCAGGGAATTCACTGATGTTAATCGGGTCTTGATTCGCTTGACGCTGCTG      f
15  CCGATTAACATCAGAAACTTCCCTGATGTTAATCGGGTCTTGATTCGCTTGACGCTGCTG      f
16  CCGATTAACATCAAGGAAATCCCTGATGTTAATCGGGTCTTGATTCGCTTGACGCTGCTG      f
17  CCGATTAACATCACGGGAAAACCTGATGTTAATCGGGTCTTGATTCGCTTGACGCTGCTG      f
18  CCGATTAACATCAAGTCCCCCCATGATGTTAATCGGGTCTTGATTCGCTTGACGCTGCTG      f
19  CCGATTAACATCAGGGAACCCCATGATGTTAATCGGGTCTTGATTCGCTTGACGCTGCTG      f
20  CCGATTAACATCAAACAATCCCCTGATGTTAATCGGGTCTTGATTCGCTTGACGCTGCTG      f
21  CCGATTAACATCAAGGGTATTCCTGATGTTAATCGGGTCTTGATTCGCTTGACGCTGCTG      f
22  CCGATTAACATCAGGGGAACCCCTGATGTTAATCGGGTCTTGATTCGCTTGACGCTGCTG      f
23  CCGATTAACATCAGAAAATCCCCTGATGTTAATCGGGTCTTGATTCGCTTGACGCTGCTG      f
24  CCGATTAACATCAGAACTTCCCCTGATGTTAATCGGGTCTTGATTCGCTTGACGCTGCTG      f
25  CCGATTAACATCAAGGGGGGTATTGATGTTAATCGGGTCTTGATTCGCTTGACGCTGCTG      f
26  CCGATTAACATCAGGGGGGGTCATGATGTTAATCGGGTCTTGATTCGCTTGACGCTGCTG      t
27  CCGATTAACATCAATTTCCCACCTGATGTTAATCGGGTCTTGATTCGCTTGACGCTGCTG      t
28  CCGATTAACATCAGGAGTTCCCCTGATGTTAATCGGGTCTTGATTCGCTTGACGCTGCTG      f
29  CCGATTAACATCACGGGGAATTCTGATGTTAATCGGGTCTTGATTCGCTTGACGCTGCTG      f
30  CCGATTAACATCAGTGGTACTTGTGATGTTAATCGGGTCTTGATTCGCTTGACGCTGCTG      t
31  CCGATTAACATCAATCCACCCCCTGATGTTAATCGGGTCTTGATTCGCTTGACGCTGCTG      t
32  CCGATTAACATCAGGGGGTGTAATGATGTTAATCGGGTCTTGATTCGCTTGACGCTGCTG      t
33  CCGATTAACATCAGGGGATCACCTGATGTTAATCGGGTCTTGATTCGCTTGACGCTGCTG      f
34  CCGATTAACATCACAACACCCCCTGATGTTAATCGGGTCTTGATTCGCTTGACGCTGCTG      f
